- assaySystem: soluble guanylate cyclase (Sus scrofa, UniProt A0A4X1U7N1+A0ACM8Q7I6)
- Construct: endogenous in cells; host or cells: primary endothelial cells from pig aorta
- Sequence (A0A4X1U7N1 1-619): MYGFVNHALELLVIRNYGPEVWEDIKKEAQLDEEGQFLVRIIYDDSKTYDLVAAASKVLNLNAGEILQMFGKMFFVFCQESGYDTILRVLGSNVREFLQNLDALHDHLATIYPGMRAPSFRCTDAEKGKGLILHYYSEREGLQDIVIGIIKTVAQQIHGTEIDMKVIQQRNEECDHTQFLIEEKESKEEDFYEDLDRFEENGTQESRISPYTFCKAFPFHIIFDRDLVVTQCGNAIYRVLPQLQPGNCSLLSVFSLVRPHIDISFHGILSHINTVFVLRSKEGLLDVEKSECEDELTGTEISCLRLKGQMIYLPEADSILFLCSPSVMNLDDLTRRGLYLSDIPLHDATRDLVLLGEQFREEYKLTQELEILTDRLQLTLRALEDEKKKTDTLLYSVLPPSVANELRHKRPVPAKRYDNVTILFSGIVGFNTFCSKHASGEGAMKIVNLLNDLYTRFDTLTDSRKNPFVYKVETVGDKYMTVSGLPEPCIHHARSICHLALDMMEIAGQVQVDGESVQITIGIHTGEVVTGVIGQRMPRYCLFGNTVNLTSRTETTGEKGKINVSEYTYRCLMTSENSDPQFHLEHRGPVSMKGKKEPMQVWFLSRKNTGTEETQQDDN
- Sequence (A0ACM8Q7I6 1-688): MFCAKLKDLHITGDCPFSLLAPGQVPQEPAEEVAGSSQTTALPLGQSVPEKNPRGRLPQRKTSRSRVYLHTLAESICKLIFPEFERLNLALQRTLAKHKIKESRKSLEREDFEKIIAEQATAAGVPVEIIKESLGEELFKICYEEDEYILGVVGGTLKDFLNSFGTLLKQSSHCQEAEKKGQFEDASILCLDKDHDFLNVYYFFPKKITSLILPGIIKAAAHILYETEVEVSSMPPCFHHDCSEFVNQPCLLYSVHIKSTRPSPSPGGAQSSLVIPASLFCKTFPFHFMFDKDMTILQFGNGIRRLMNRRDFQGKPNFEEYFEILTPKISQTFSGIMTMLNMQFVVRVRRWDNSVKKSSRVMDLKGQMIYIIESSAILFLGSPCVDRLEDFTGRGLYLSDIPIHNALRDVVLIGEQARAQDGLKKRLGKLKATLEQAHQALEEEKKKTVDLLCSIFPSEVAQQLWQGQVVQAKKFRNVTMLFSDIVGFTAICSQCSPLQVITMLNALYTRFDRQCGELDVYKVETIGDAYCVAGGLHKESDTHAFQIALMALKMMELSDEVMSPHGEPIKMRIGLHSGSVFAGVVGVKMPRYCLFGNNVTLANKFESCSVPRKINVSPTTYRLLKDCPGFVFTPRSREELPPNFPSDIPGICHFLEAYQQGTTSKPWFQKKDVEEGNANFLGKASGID
- testSummary: Stimulation of soluble guanylate cyclase in primary endothelial cells (intracellular cGMP, radioimmunological)
- Type: cell-based
- studyConditions: 10 min, test substance 1 μM, primary endothelial cells from pig aorta, NOSYNTH, stimulation buffer with or without NO donor (SNP 1 μM), read-out: % cGMP increase (NOSYNTH)
metricName: activation at 1 µM (%)

(P) OCc1ccc(-c2nn(Cc3ccccc3F)c3cc(F)ccc23)o1
(Q) COc1cccc(Cn2nc(-c3ccc(CO)o3)c3ccc(F)cc32)c1
(R) OCc1ccc(-c2nn(Cc3cccc(F)c3)c3ccccc23)o1
Sort the entries above by activation at 1 µM, smallest first. Put the labels in the order asked and list them. Q, R, P
(Q: 28%, R: 413%, P: 734%)

Reference source for all entries: patent US6180656A
